Origin of the recorded values: patent US7135466B2

target: c-kit (Homo sapiens); construct: MO7e (human megakaryocytic leukemia cell line) which had been arrested for 20 hr; endogenous in cells; host or cells: MO7e human megakaryocytic leukemia cell line; assay: Inhibitory activity against c-kit autophosphorylation (MO7e cells, h-SCF); assay type: cell-based; conditions: MO7e cells, h-SCF stimulation; read-out: c-kit IC50
Sequence (P10721 26-976): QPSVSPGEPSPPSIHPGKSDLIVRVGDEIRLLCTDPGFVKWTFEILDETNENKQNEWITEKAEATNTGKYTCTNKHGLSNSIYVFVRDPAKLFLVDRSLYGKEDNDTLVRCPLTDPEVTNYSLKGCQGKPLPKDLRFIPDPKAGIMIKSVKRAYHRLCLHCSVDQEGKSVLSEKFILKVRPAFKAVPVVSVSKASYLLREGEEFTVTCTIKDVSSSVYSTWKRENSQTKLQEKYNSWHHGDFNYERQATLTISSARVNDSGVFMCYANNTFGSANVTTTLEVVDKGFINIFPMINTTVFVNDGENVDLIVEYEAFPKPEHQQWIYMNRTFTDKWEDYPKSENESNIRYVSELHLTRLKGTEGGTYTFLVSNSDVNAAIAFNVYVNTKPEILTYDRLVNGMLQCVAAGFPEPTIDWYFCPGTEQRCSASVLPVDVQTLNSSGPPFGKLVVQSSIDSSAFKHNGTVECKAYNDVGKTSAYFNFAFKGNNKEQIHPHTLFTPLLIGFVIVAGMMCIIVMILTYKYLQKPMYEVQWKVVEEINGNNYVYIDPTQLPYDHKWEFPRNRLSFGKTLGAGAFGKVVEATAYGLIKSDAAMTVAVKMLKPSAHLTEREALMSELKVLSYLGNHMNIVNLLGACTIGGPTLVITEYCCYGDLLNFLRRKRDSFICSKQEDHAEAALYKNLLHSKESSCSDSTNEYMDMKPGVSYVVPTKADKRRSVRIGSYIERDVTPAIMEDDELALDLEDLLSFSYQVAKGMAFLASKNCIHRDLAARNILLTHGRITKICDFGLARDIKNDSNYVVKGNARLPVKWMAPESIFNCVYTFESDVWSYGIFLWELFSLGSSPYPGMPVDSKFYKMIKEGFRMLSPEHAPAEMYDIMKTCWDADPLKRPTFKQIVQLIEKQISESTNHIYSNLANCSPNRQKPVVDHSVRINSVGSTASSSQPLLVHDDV
measurement kind: IC50 (nM)

A selection of reference data follows.
# query smiles, study target, reported measurement
measured = [
    ("COc1cc2nccc(Oc3ccc(NC(=S)NC(=O)c4cc(Cl)cc(Cl)c4)cc3F)c2cc1OC", "c-kit (Homo sapiens)", 195),
    ("COc1cc2nccc(Oc3ccc(NC(=S)NC(=O)c4ccc(Cl)cc4)cc3F)c2cc1OC", "c-kit (Homo sapiens)", 523),
    ("COc1cc2nccc(Oc3ccc(NC(=S)NC(=O)c4ccc(C)cc4)cc3)c2cc1OC", "c-kit (Homo sapiens)", 300),
    ("COc1cc2nccc(Oc3ccc(NC(=S)NC(=O)N(C(C)C)C(C)C)cc3)c2cc1OC", "c-kit (Homo sapiens)", 449),
]

[I] COc1cc2nccc(Oc3ccc(NC(=S)NC(=O)c4ccc(Br)cc4)cc3Cl)c2cc1OC
[II] COc1cc2nccc(Oc3ccc(NC(=S)NC(=O)c4cccc(C(F)(F)F)c4)cc3)c2cc1OC
Lab note: check whether I or II shows the higher recorded IC50. Pick one; state its label.
I

[1] COc1cc2nccc(Oc3ccc(NC(=S)NC(=O)c4cc(C)cc(C)c4)cc3Cl)c2cc1OC
[2] COc1cc2ncnc(Oc3ccc(SCCCOc4ccccc4F)cc3)c2cc1OC
Given the listed records, identify the one among 1 and 2 with higher IC50. Mark your answer with the label of the selected entry.
2
(2: 453 nM, 1: 187 nM)

====

biological target: PDGF-Ra (Homo sapiens, UniProt P16234); construct: host or cells: G-292 human osteosarcoma cells; experiment: Inhibitory activity against PDGF-Ra phosphorylation by PDGF-AA stimulation using G292; type: cell-based; details: Pharmacological Test Example 1; > means inhibition at indicated concentration not more than 50%, < and << not less than 50%; read-out: PDGF (E) IC50
Sequence (P16234 24-1089): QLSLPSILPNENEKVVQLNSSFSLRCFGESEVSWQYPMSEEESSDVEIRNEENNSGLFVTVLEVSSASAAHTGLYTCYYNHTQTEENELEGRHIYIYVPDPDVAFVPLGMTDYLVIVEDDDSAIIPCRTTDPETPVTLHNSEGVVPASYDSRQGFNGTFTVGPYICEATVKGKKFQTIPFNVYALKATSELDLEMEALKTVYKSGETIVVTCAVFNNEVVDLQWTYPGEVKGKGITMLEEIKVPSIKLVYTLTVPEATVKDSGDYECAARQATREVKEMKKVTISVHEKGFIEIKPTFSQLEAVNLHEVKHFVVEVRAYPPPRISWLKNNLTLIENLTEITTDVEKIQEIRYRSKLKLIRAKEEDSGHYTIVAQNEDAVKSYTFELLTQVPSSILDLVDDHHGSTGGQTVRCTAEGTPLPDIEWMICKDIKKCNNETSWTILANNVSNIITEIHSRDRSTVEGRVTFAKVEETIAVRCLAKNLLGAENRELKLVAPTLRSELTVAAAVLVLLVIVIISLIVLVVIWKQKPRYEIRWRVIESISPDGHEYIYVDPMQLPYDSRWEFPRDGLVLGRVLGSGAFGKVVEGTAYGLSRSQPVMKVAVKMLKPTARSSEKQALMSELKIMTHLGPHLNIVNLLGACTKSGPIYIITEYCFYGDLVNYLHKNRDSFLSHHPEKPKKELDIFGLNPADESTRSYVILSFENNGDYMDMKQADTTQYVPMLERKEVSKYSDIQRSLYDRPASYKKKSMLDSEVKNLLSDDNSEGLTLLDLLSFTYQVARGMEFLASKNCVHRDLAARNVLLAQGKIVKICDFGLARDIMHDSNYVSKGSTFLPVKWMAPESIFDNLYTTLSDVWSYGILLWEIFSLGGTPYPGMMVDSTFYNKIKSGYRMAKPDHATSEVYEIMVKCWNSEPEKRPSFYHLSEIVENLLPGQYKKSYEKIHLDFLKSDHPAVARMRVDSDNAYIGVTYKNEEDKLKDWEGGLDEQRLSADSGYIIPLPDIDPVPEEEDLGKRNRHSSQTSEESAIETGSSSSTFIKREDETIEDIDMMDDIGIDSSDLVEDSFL
pIC50: −log10 of the molar value.
measurement kind: pIC50

# compound, pIC50
rows = [
    ("COc1cc2nccc(Oc3cc(C)c(NC(=O)OCc4ccc(F)cc4)cc3C)c2cc1OC [Example 10]", 7.96),
]

[P] COc1cc2ncnc(Oc3ccc(NC(=O)OC(C)c4cccc(Br)c4)c(Cl)c3)c2cc1OC (centres unmarked) [Example 121]
[Q] COc1cc2ncnc(Oc3ccc(NC(=O)OC(C)c4cc(F)c(F)cc4F)cc3)c2cc1OC (centres unmarked) [Example 95]
[R] CCC(OC(=O)Nc1ccc(Oc2ccnc3cc(OC)c(OC)cc23)cc1)c1ccccc1 (centres unmarked) [Example 263]
# rank by pIC50, ascending (min first) Record the ranking as a list of labels in the requested order.
P, Q, R
(P: 7.32, Q: 7.80, R: 8.00)

====

target: PDGF-Ra (Homo sapiens, UniProt P16234); construct: host or cells: G-292 human osteosarcoma cells; test: Inhibitory activity against PDGF-Ra phosphorylation by PDGF-AA stimulation using G292; assay type: cell-based; settings: Pharmacological Test Example 1; > means inhibition at indicated concentration not more than 50%, < and << not less than 50%; read-out: PDGF (E) IC50
pIC50: −log10 of the molar value.
measurement kind: pIC50

# molecule, measurement kind, reported measurement
measured = [
    ("COc1cccc(OC(=O)Nc2cc(C)c(Oc3ccnc4cc(OC)c(OC)cc34)cc2C)c1 [Example 290]", "pIC50", 7.33),
]

[a] COc1cc2ncnc(Oc3cc(C)c(NC(=O)OC4CCCCC4)cc3C)c2cc1OC [Example 390]
[b] COc1cc2ncnc(Oc3ccc(NC(=O)OCCOc4ccccc4F)cc3)c2cc1OC [Example 206]
[c] COc1cc2nccc(Oc3cc(C)c(NC(=O)OC(c4ccccc4)C(C)C)cc3C)c2cc1OC (stereo not drawn) [Example 197]
[d] CCCCCCOC(=O)Nc1cc(C)c(Oc2ccnc3cc(OC)c(OC)cc23)cc1C [Example 262]
// ascending sort on recorded pIC50 Write the labels in rank order as requested.
c, a, b, d
(c: 7.03, a: 7.48, b: 7.89, d: 8.15)

====

molecular target: PDGF-Ra (Homo sapiens); construct: host or cells: G-292 human osteosarcoma cells; experiment: Inhibitory activity against PDGF-Ra phosphorylation by PDGF-AA stimulation using G292; assay type: cell-based; conditions: > means inhibition at indicated concentration not more than 50%, < and << not less than 50%; read-out: PDGF (E) IC50
measurement kind: IC50 (nM)

The examples below pair each entry with its known result.
# compound, unit abbrev, IC50
data = [
    ("COc1cc2nccc(Oc3ccc(NC(=O)OC4CCOCC4)cc3)c2cc1OC", "nM", 26),
    ("COc1cc2ncnc(Oc3ccc(OCC(=O)N4CCC(c5ccccc5)CC4)cc3)c2cc1OC", "nM", 13),
    ("COc1cccc(OCCCOc2ccc(Oc3ccnc4cc(OC)c(OC)cc34)cc2)c1", "nM", 6),
]

[P] COc1cc2nccc(Oc3ccc(N(C)C(=O)OCC4CCCCCC4)cc3)c2cc1OC
[Q] COc1cc2ncnc(Oc3ccc(NC(=O)NC4CCN(Cc5ccccc5C)C4)c(Cl)c3)c2cc1OC (stereo not shown)
// select label with min value of measured IC50 from [ P , Q ] Output the label that corresponds to your choice.
P
(P: 20 nM, Q: 39 nM)

[1] CCOc1ccc(C(=O)NC(=S)Nc2ccc(Oc3ncnc4cc(OC)c(OC)cc34)cc2)cc1
[2] COc1cc2nccc(Oc3ccc(OCCCOc4ccccc4C)cc3)c2cc1OC
For this pair, 1 and 2 , which shows a numerically higher IC50? Reply with the label of the item you choose.
1
(1: 11 nM, 2: 6 nM)

====

target: PDGF-Ra (Homo sapiens); construct: host or cells: G-292 human osteosarcoma cells; assay: Inhibitory activity against PDGF-Ra phosphorylation by PDGF-AA stimulation using G292; type: cell-based; settings: Pharmacological Test Example 1; > means inhibition at indicated concentration not more than 50%, < and << not less than 50%; read-out: PDGF (E) IC50
measurement kind: IC50 (µM)

[P] COc1ccc(OCCCOC(=O)Nc2ccc(Oc3ncnc4cc(OC)c(OC)cc34)cc2Cl)cc1
[Q] COc1cc2nccc(Oc3ccc(NC(=O)OC(C)c4ccc(F)cc4)c(C)c3C)c2cc1OC (centres unmarked)
[R] COc1cc2nccc(Oc3ccc(NC(=O)OCc4ccccc4)cc3)c2cc1OC
[S] CCOc1ccccc1C(C)OC(=O)Nc1cc(C)c(Oc2ccnc3cc(OC)c(OC)cc23)cc1C (centres unmarked)
Put the items above in order of decreasing IC50. Rank the items, then write their labels in that order.
S, P, Q, R

[a] COc1cc2ncnc(Oc3ccc(NC(=O)OC(c4ccccc4)C(C)C)cc3)c2cc1OC (centres unmarked)
[b] COc1cc2nccc(Oc3cc(C)c(NC(=O)OC(C)c4cc(F)c(F)cc4F)cc3C)c2cc1OC (centres unmarked)
[c] COc1cc2ncnc(Oc3ccc(NC(=O)OCCCOc4cccc(F)c4)c(C)c3C)c2cc1OC
Sort these molecules on IC50 so the largest reading comes first. Present the labels in the sequence the task asks for.
b, a, c

====

Biological target: PDGF-Ra (Homo sapiens)
Construct: host or cells: G-292 human osteosarcoma cells
Assay: Inhibitory activity against PDGF-Ra phosphorylation by PDGF-AA stimulation using G292
Assay type: cell-based
Details: > means inhibition at indicated concentration not more than 50%, < and << not less than 50%; read-out: PDGF (E) IC50
Description: Measurement of Inhibitory Activity Against PDGF-Ra Phosphorylation by PDGF-AA Stimulation Using G292 […] This solubilized cell solution was transferred to a 96-well plate coated with aniti-phosphotyrosine antibody PY-20, and a reaction was allowed to proceed at 4° C. overnight. […] Color development was carried out using a color development kit for peroxidase (Sumitomo Bakelite Co., Ltd.), and the absorbance was measured at 450 nm.
measurement kind: IC50 (nM)

# compound, study target, reported measurement
rows = [
    ("CCc1ccc(C(=O)NC(=S)Nc2ccc(Oc3ccnc4cc(OC)c(OC)cc34)c(F)c2)cc1 [Example 997]", "PDGF-Ra (Homo sapiens)", 9),
]

[A] CCN(CC)CCNC(=S)Nc1ccc(Oc2ncnc3cc(OC)c(OC)cc23)cc1 [Example 516]
[B] COc1cc2ncnc(Oc3ccc(NC(=O)NC4CCN(Cc5ccccc5)CC4)c([N+](=O)[O-])c3)c2cc1OC [Example 640]
[C] COc1cc2nccc(Oc3ccc(NC(=S)NC(=O)c4cccc(C)c4C)cc3Cl)c2cc1OC [Example 1018]
[D] CCCC(CCN(CC)CC)OC(=O)Nc1ccc(Oc2ncnc3cc(OC)c(OC)cc23)cc1 (centres unmarked) [Example 444]
[E] COc1cc2nccc(Oc3ccc(NC(=O)OC(C#N)c4ccccc4)c(C)c3C)c2cc1OC (centres unmarked) [Example 455]
Put the items in sequence by IC50, from largest down. Thanks in advance for listing the labels in the requested order.
E, A, B, D, C
